# Target or test system: Bovine thymus 1α,25-dihydroxy vitamin D3 receptor (Bos taurus)
# Construct: Bovine thymus 1α,25-dihydroxy vitamin D3 receptor was purchased from YAMASA BIOCHEMICAL; purchased YAMASA BIOCHEMICAL (Choshi, Chiba, Japan); host or cells: bovine thymus (tissue preparation)
# Sequence (Q28037 whole entry): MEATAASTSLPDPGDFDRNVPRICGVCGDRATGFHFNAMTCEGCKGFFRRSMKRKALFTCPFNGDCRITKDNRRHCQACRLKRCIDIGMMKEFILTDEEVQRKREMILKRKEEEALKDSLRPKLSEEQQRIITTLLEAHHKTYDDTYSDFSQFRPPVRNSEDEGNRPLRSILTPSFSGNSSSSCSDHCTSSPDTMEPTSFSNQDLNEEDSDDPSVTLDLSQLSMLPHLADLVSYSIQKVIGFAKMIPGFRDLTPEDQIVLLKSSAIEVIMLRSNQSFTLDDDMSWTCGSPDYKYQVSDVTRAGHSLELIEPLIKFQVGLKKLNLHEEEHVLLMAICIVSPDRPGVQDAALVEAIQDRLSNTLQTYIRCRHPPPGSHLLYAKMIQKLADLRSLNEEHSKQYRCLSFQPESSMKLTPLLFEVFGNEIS
# Assay: Assay for binding to vitamin D receptor (VDR); displacement of [3H]-1α,25-dihydroxy vitamin D3
# Condition info: relative value, with that of 1α,25-dihydroxy vitamin D3 taken as 100; [3H]-1α,25-dihydroxy vitamin D3 at 0.1 nM, overnight at 4°C
Measurement name: Binding property

Compound: C=C1/C(=C\C=C2/CCC[C@]3(C)[C@@H]([C@H](C)CCCC(C)(C)O)CC[C@@H]23)C[C@](C)(O)C[C@@H]1O [3-Me-(1α,3α)-dihydroxy vitamin D3]
Value: < 0.1
//
Compound: C=C1/C(=C\C=C2/CCC[C@]3(C)[C@@H]([C@H](C)CCCC(C)(C)O)CC[C@@H]23)C[C@](C)(O)C[C@H]1O [3-Me-(1β,3α)-dihydroxy vitamin D3, 3-methyl-1β,3α-dihydroxy vitamin D3]
Value: < 0.1
//
Compound: C=C1/C(=C\C=C2/CCC[C@]3(C)[C@@H]([C@H](C)CCCC(C)(C)O)CC[C@@H]23)C[C@@](C)(O)C[C@@H]1O [3-Me-(1α,3β)-dihydroxy vitamin D3]
Value: 18
//
Compound: C=C1/C(=C\C=C2/CCC[C@]3(C)[C@@H]([C@H](C)CCCC(C)(C)O)CC[C@@H]23)C[C@@](C)(O)C[C@H]1O [3-Me-(1β,3β)-dihydroxy vitamin D3, 3-methyl-1β,3β-dihydroxy vitamin D3]
Value: < 0.1
